Give IC50 for every item shown.
# Test system: HSV-1
# assay-info: HSV Antiviral (ELISA) Assay
# Assay type: cell-based, herpes simplex virus type 1
# condition-context: Human alphaherpesvirus 1, Vero, Vero cells, HSV-1; read-out: IC50 Ug/ml HSV
Numeric only. Scale: µg/mL

Query block: Input "COc1c(I)cc(NC(=S)Nc2ccc(NC(C)=O)cc2)c(OC)c1I" , output reported IC50.
Result block: 20

Query block: Input "COc1cc(OCc2ccccc2)c(NC(=S)Nc2ccc(NC(C)=O)cc2)cc1Cl" , output reported IC50.
Result block: 8

Query block: Input "CC(=O)Nc1ccc(NC(=S)Nc2cc(Cl)c(C)c(Cl)c2)cc1" , output reported IC50.
Result block: 10

Query block: Input "COc1cc(OCC(=O)OC(C)(C)C)c(Cl)cc1NC(=S)Nc1ccc(NC(C)=O)cc1" , output reported IC50.
Result block: 35

Query block: Input "COc1cc(OC)c(NC(=S)Nc2ccc(NC(C)=O)cc2C(F)(F)F)cc1Cl" , output reported IC50.
Result block: 2

Query block: Input "CC(=O)Nc1ccc(NC(=S)Nc2ccc(Br)c(Cl)c2)cc1" , output reported IC50.
Result block: 4

Query block: Input "CC(=O)Nc1ccc(NC(=S)Nc2ccc(Cl)c(Cl)c2)cc1" , output reported IC50.
Result block: 1.5

Query block: Input CC(=O)Nc1ccc(NC(=S)Nc2ccc(NC3CCN(Cc4ccccc4)C3)c(Cl)c2)cc1 (stereo not drawn) , output reported IC50.
Result block: 6

Query block: Input "COc1cc(OC)c(NC(=S)Nc2ccc(NC(C)=O)c(Cl)c2)cc1Cl" , output reported IC50.
Result block: 10

Query block: Input "CC(=O)Nc1ccc(NC(=S)Nc2cc(Cl)c(Oc3ccccc3)c(Cl)c2)cc1" , output reported IC50.
Result block: 15

Query block: Input "CCN(CC)c1ccc(NC(=S)Nc2ccc(NC(C)=O)cc2)cc1Cl" , output reported IC50.
Result block: 3

Query block: Input "CSc1ccc(NC(=S)Nc2ccc(NC(C)=O)cc2)cc1Cl" , output reported IC50.
Result block: 1.5

Query block: Input "COc1cc(OC)c(NC(=S)Nc2ccc(NC(C)=O)cc2C)cc1Cl" , output reported IC50.
Result block: 1

Query block: Input "CC(=O)Nc1ccc(NC(=S)Nc2cc(Cl)c(OCCOC(C)=O)c(Cl)c2)cc1" , output reported IC50.
Result block: 40

----------
# System: VZV strain Ellen
# assay-info: VZV Antiviral (ELISA) Assay
# Format: cell-based, varicella-zoster virus
# condition-context: Human alphaherpesvirus 3, Fibroblast, read-out: % inhibition 10 ug/ml VZV, 10 ug/ml; human foreskin fibroblast cells
metric: inhibition at 10 µg/mL (%)
Numeric only. Scale: %

Query block: Input "COc1cc(OCC(N)=O)c(Cl)cc1NC(=S)Nc1ccc(NC(C)=O)cc1" , output reported inhibition at 10 µg/mL.
Result block: 20

Query block: Input "COc1cc(OCCO)c(Cl)cc1NC(=S)Nc1ccc(NC(C)=O)cc1" , output reported inhibition at 10 µg/mL.
Result block: 30

Query block: Input "CC(=O)Nc1ccc(NC(=S)Nc2ccc(N3CCOCC3)c(Cl)c2)cc1" , output reported inhibition at 10 µg/mL.
Result block: 30

----------
Give IC50 for every item shown.
# Test system: HSV-1
# assay-info: HSV Antiviral (ELISA) Assay
# Assay type: cell-based, herpes simplex virus type 1
# condition-context: Human alphaherpesvirus 1, Vero, Vero cells, HSV-1; read-out: IC50 Ug/ml HSV

Query block: Input "COc1c(Cl)cc(NC(=S)Nc2ccc(NC(C)=O)cc2)cc1Cl" , output reported IC50.
Result block: > 10 µg/mL

Query block: Input "CC(=O)Nc1ccc(NC(=S)Nc2ccc(OCc3ccccc3)c(Cl)c2)cc1" , output reported IC50.
Result block: > 10 µg/mL

Query block: Input "CC(=O)Nc1ccc(NC(=S)Nc2ccc(NC(=O)CSCCN(C)C)c(Cl)c2)cc1" , output reported IC50.
Result block: > 10 µg/mL

Query block: Input "CC(=O)Nc1ccc(NC(=S)Nc2ccc(NS(C)(=O)=O)c(Cl)c2)cc1" , output reported IC50.
Result block: > 10 µg/mL

Query block: Input "CC(=O)Nc1ccc(NC(=S)Nc2cc(Cl)c(OCc3ccccc3)c(Cl)c2)cc1" , output reported IC50.
Result block: > 50 µg/mL

Query block: Input "CC(=O)Nc1ccc(NC(=S)Nc2ccc([N+](=O)[O-])cc2)cc1" , output reported IC50.
Result block: > 50 µg/mL

Query block: Input "CC(=O)Nc1ccc(NC(=S)Nc2ccc(N(C)CC(C)C)c(Cl)c2)cc1" , output reported IC50.
Result block: > 10 µg/mL

Query block: Input "CC(=O)Nc1ccc(NC(=S)Nc2ccc(O)cc2O)cc1" , output reported IC50.
Result block: > 50 µg/mL
